Catalogue of T/C values
Test system: L1210 leukemia ip in BDF1 mice, survival T/C
method: NCI In Vivo Anticancer Drug Screen. Data for tumor model L1210 Leukemia (intraperitoneal) in B6D2F1 (BDF1) mice
run.conditions: endpoint: mean survival time; dose: 50.0 mg/kg/injection; schedule: Q04DX003 (ip); vehicle: Klucel (hydroxypropylcellulose) (HPC); higher = longer survival
Toxic doses and inconclusive results are not listed.
metric: T/C

[[record]]
compound = "CCOC(=O)C1(C(=O)OCC)C(C)CC2Nc3ccccc3C(=O)N21 (stereo unspecified)"
reported_result = "91 % of control"

[[record]]
compound = "COC(=O)N1C2CCC(C2=C(C)C)N1C(=O)OC"
reported_result = "105 % of control"

[[record]]
compound = "CCCCCCCCCCCCSCCOC(=O)C1C2CCC(O2)C1C(=O)O (stereo unspecified)"
reported_result = "90 % of control"

[[record]]
compound = "O=C(CCCN1CC=C(n2c(=O)[nH]c3ccccc32)CC1)c1ccc(F)cc1"
reported_result = "106 % of control"

[[record]]
compound = "CCN(CC)C(=O)c1c(Cl)n(C)c2ccccc12"
reported_result = "104 % of control"

[[record]]
compound = "O=C(NCCCCN1CC1)C(=O)Nc1ccccc1"
reported_result = "98 % of control"

[[record]]
compound = "COc1ccc(OC)c(NC(=O)Nc2ccc([As](=O)(O)O)cc2)c1"
reported_result = "96 % of control"

[[record]]
compound = "CN1CC(C(=O)NCc2ccccc2)CC2c3cccc4[nH]cc(c34)CC21 (stereo unspecified)"
reported_result = "91 % of control"

[[record]]
compound = "Nc1nc(N)nc(-c2cccc(Cl)c2)n1"
reported_result = "101 % of control"

[[record]]
compound = "CC(C)(C)C1CCC(NC(=O)CCl)CC1 (stereo unspecified)"
reported_result = "98 % of control"

[[record]]
compound = "CCC(C)C(C#N)(CCN1CCCCC1)Cc1cccc2ccccc12 (stereo unspecified)"
reported_result = "98 % of control"

[[record]]
compound = "CS(=O)(=O)OC1C(OCc2ccccc2)OC(COCc2ccccc2)C(OC2OC(COCc3ccccc3)C(OCc3ccccc3)C(OCc3ccccc3)C2OCc2ccccc2)C1OCc1ccccc1 (stereo unspecified)"
reported_result = "93 % of control"

[[record]]
compound = "O=C(NCCCl)Nc1ccc2c3c1CCCC3CC2 (stereo unspecified)"
reported_result = "106 % of control"

[[record]]
compound = "O=C(Nc1ccccc1)Oc1cccc2cccnc12"
reported_result = "100 % of control"

[[record]]
compound = "CC(=S)c1ccccc1"
reported_result = "102 % of control"

[[record]]
compound = "CC1(O)CCC2CC1C2(C)CO (stereo unspecified)"
reported_result = "108 % of control"


These data points were gathered from PubChem BioAssay AID248.
